assay-target: T1, Clec12A (human, UniProt Q5QGZ9 1-265)
T1 construct: whole, on cells; also called CLL-1; MICL
T1 sequence (looked up): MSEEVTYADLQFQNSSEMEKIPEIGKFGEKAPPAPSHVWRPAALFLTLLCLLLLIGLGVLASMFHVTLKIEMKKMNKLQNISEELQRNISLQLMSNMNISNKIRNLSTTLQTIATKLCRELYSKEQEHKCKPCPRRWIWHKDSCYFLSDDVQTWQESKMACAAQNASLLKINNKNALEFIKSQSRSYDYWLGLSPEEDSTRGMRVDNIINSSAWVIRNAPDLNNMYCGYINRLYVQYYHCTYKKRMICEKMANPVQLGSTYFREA
procedure-text: sandwich ELISA: coated with FMC63, construct titrated (x-axis ug/ml), followed by Clec12A-bio, detected by HRP-SA
Please enter y where C of the 4-P fit (midpoint) is greater than or equal to 0.01 µg/mL, and n where it is lower.

Would you please look over these solved cases?
{"binder": "anti-CLEC12a VHH 1B12-G4Sx4-CD19 D1+2 C term mutant #2-His (VHH) VHH: QVQLQASGGGLVQAGGSLRLSCAASGSIFAINEINLMGWYRQAPGKQRELVAACASDGNTYYADSVKGRFTISRDNAEKTVYLQMNNLKPDDTAVYYCDANSRGNYYSGQGTQVTVSS", "assigned-label": "y"}
{"binder": "#329 (VHH, also called anti CLEC12a VHH 2F5-G4Sx4-CD19 C-term mutant #2-His) VHH: QVQLQQSGGGLAQTGGSLILSCAASGSIFAINEINLMGWYRQAPGKQRELVAACASDGNTYYADSVKGRFTISRDNAEKTVYLQMNNLKPDDTAVYYCDANSRGNYYSGQGTQVTVSS", "assigned-label": "y"}
{"binder": "anti-CLEC12a VHH 1A10-CD19 D1+2 C term mutant #2 (VHH) VHH: QVQLQESGGGLVQVGESLRLSCVVSGDTRSINLMGWYRQAPGKQRELVAACASDGNTYYADSVKGRFTISRDNAEKTVYLQMNNLKPDDTAVYYCDANSRGNYYSGQGTLVTVSS", "assigned-label": "n"}

# bool: C of the 4-P fit (midpoint) of anti-CLEC12a VHH 2H3-CD19 D1+2 C term mutant #2 (VHH, also called construct #330) VHH: QVQLQESGGGLVQAGGSLRLSCVASGSIRSINVMGWYRQAPGKQRELVAACASDGNTYYADSVKGRFTISRDNAEKTVYLQMNNLKPDDTAVYYCDANSRGNYYSGQGTQVTVSS >= 0.01 µg/mL
y

Item: anti-CLEC12a VHH 1B1-G4Sx4-CD19 D1+2 C term mutant #2-His (VHH) VHH: QVQLQESGGGLVQAGGSLRLSCAASGSIFAINEINLMGWYRQAPGKQRELVAACASDGNTYYADSVKGRFTISRDNAEKTVYLQMNNLKPDDTAVYYCDANSRGNYYSGQGTQVTVSS
n
